test: LAP4-GFP expression modulators in yeast, confirmation, cell-based, cherry picks, flow cytometry, mother/daughter gates (AID 2271); conditions: S. cerevisiae LAP4-GFP strain, 3 h, at 10 µM, 100 means same as DMSO control
Active and inactive are the calls of the source.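 The calls were made as follows: active = GFP response above 150% of the DMSO control; inconclusive = fewer than 70 events counted in any yeast strain; inactive = the rest.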
Please answer using one outcome listed in active, inactive

Ask | Just curious, what result did `Cc1ccc(S(=O)(=O)CC#CCOC(=O)c2ccc([N+](=O)[O-])cc2)cc1` get here?
Reply | inactive

Ask | Any idea what this test logged for `CCN1CCN(C(=O)C2CCN(c3nnc(C)c4c(C)n(-c5ccc(C)cc5)nc34)CC2)CC1` ?
Reply | inactive

Ask | Dear all, I need the recorded test outcome for `COc1ccc(CCNc2nc(-c3sc(C)nc3C)cs2)cc1OC` , thank you.
Reply | inactive

Ask | Entry `C/C(=N/NC(=O)c1ccc(C(C)(C)C)cc1)c1ccccn1` : call = ?
Reply | active

Ask | Please indicate how the test categorized Cc1ccccc1N1C(=O)CC(Sc2nnc(-c3ccccc3)o2)C1=O (stereo not given) .
Reply | inactive

Ask | Answer briefly: the call reported for Cc1ccc(C(C[N+](=O)[O-])n2nc(C)cc2C)cc1 (stereo not given) in this assay.
Reply | inactive

Ask | Test call for this compound, please: `CN1/C(=C\C(=O)c2cccc(S(=O)(=O)N3CCCCC3)c2)C(C)(C)c2ccccc21`
Reply | inactive

Ask | Per the records of this test, what outcome belongs to `O=C(Cn1cc(/C=C\[N+](=O)[O-])c2ccccc21)Nc1ccccc1` ?
Reply | inactive

Ask | Field: outcome | Entry: COc1ccccc1CNC(=O)CS(=O)Cc1nc(-c2ccc(OC)c(OC)c2)oc1C (stereo not given)
Reply | inactive

Ask | Test call for this compound, please: `Cc1ccc2[nH]c3c(=O)n(CC(=O)N4CCN(C)CC4)ncc3c2c1`
Reply | inactive

Ask | Could you please tell me the result logged for CC1CN(c2nc3ccccn3c(=O)c2/C=C(\C#N)C(=O)N2CCOCC2)CC(C)O1 (stereo not given) in this assay?
Reply | inactive

Ask | Would you mind telling me which call this test gave `OCc1ccccc1SSc1ccccc1CO` ?
Reply | inactive

Ask | How was `Cc1ccc(C(=O)/C=C/C(=O)c2ccc(C)cc2)cc1` classified in this test?
Reply | active

Ask | Give the logged outcome of this assay for the following compound: `CCOC(=O)COc1c(Cl)cc(/C=C2\N=C(C)OC2=O)cc1OC`
Reply | inactive

Ask | I'd appreciate the recorded outcome for `Cc1cc(-c2csc3nc[nH]c(=S)c23)cc(C)c1C` from this test.
Reply | inactive

Ask | What did this assay record as the result for `Cc1noc2ncnc(Sc3c(Cl)cccc3Cl)c12` ?
Reply | inactive

Ask | In this assay, the call recorded for O=C1C(CSCc2ccccc2)NC(=S)N1c1ccccc1 (stereo not given) was what?
Reply | inactive

Ask | Record lookup: outcome of this test for `Cc1c(/C=N/Nc2ccc(C(=O)O)cc2)c2ccccc2n1C` ?
Reply | inactive

Ask | In this assay, the call recorded for `CCc1cccc2sc(N3CCN(C(=O)c4ccc([N+](=O)[O-])o4)CC3)nc12` was what?
Reply | active

Ask | What was the test verdict on `c1ccc(-c2n[nH]c3ccccc23)cc1` ?
Reply | inactive

Ask | Call for entry `COC(=O)/C(=C/c1c[nH]c2ccccc12)[N+](=O)[O-]` :
Reply | active

Ask | Could you kindly confirm the outcome this assay logged for `COc1ccc(CN2CCSc3sccc3C2=O)cc1` ?
Reply | inactive

Ask | How did this test come out for `O=C(c1ccc([N+](=O)[O-])o1)N1CCN(c2nc3ccc(F)cc3s2)CC1` ?
Reply | inactive

Ask | Hi, sorry to bother you, what did the test record for `COc1ccc(NC(=O)c2ccccc2NC(=O)c2ccccc2)cc1` ?
Reply | inactive

Ask | What did the test return for `COCCCNC(=O)c1ccc2c3c(onc13)-c1ccccc1C2=O` ?
Reply | inactive

Ask | What did this assay record as the result for `COC(=O)C1=C(C)NC(C)=C(C(=O)OC)C1c1ccc(OC(=O)c2oc3ccccc3c2C)c(OC)c1` ?
Reply | inactive

Ask | Which outcome did this test record for the compound `Cc1ccccc1N1C(=O)c2sc3nc4c(c(=O)n3c2C1=O)CCC4` ?
Reply | inactive

Ask | Which outcome did this test record for the compound `COc1ccc(/C=N/Nc2nc(-c3cccnc3)nc3ccccc23)c(OC)c1` ?
Reply | inactive

Ask | Assay outcome for CN1CCN(CC(=O)N2CCn3c4c(c5cc(C6CCCCC6)ccc53)CCCC42)CC1 (stereo not given) : what was it?
Reply | inactive

Ask | Lab log entry: `Fc1cccc(Cl)c1Cn1ncc2ccccc21` — outcome as called in the assay?
Reply | inactive

Ask | Tell me the assay call for `S=c1[nH]nc(NCCCN2CCOCC2)s1` please.
Reply | inactive

Ask | Record lookup: outcome of this test for `O=C(O)c1ccc(N/N=C/c2c(F)cccc2Cl)cc1` ?
Reply | inactive

Ask | Please indicate how the test categorized `CCOc1ccc(C(=O)/C=C/c2ccc(SC)cc2)cc1` .
Reply | inactive

Ask | Check the results log: what was the call for `COCCCN(C(=O)c1ccco1)c1nc(-c2cc(OC)ccc2OC)cs1` ?
Reply | inactive

Ask | Fill in: this test's call for `O=[N+]([O-])c1ccccc1OCCOc1ccccc1[N+](=O)[O-]` is ___
Reply | inactive

Ask | Per the assay record, what outcome was assigned to `O=C(c1ccc2ccccc2c1)N1CCN(c2ccc(O)cc2)CC1` ?
Reply | inactive

Ask | Record lookup: outcome of this test for `COc1ccc(-c2csc(NC(=O)CSc3nc(C)nc4sc(C(=O)O)c(C)c34)n2)cc1` ?
Reply | inactive

Ask | Can you look up the reported call for `O=C(COC(=O)c1ccc(NS(=O)(=O)c2cccs2)cc1O)Nc1nc2ccccc2s1` for me?
Reply | inactive

Ask | For `O=[N+]([O-])c1ccc(S(=O)(=O)c2cccc(C(F)(F)F)c2)nc1` , which call appears in the assay record?
Reply | active

Ask | Please indicate how the test categorized COc1ccc(S(=O)(=O)N2Cc3ccccc3CC2C(=O)O)cc1OC (stereo not given) .
Reply | inactive

Ask | Check the results log: what was the call for `Cn1cc([N+](=O)[O-])c(C(=O)Nc2nc(-c3ccc(Cl)cc3)cs2)n1` ?
Reply | inactive

Ask | Which result was noted for this compound in the test: `O=c1cc(-c2c(F)c(F)c(F)c(F)c2F)oc2c(F)c(F)c(F)c(F)c12`
Reply | inactive

Ask | Recorded test call requested for `O=C(CCS(=O)(=O)Cc1ccccc1F)NCCc1ccc(Cl)cc1`
Reply | inactive

Ask | What classification did COc1ccccc1OC(C)C(=O)Nc1ccccc1C(=O)NCC1CCCO1 (stereo not given) end up with in this test?
Reply | inactive

Ask | What call does the record list for `O=C(COC(=O)c1cccs1)Nc1nc(-c2ccccc2)cs1` ?
Reply | inactive
